Taken from patent US20260317344A1.

Target: pEGFR, NCI-H1975 cells (L858R/T790M EGFR) (Homo sapiens, UniProt P00533, L858R/T790M)
Construct: pEGFR (Tyr1068) TR-FRET
Sequence (P00533 25-1210 T790M/L858R): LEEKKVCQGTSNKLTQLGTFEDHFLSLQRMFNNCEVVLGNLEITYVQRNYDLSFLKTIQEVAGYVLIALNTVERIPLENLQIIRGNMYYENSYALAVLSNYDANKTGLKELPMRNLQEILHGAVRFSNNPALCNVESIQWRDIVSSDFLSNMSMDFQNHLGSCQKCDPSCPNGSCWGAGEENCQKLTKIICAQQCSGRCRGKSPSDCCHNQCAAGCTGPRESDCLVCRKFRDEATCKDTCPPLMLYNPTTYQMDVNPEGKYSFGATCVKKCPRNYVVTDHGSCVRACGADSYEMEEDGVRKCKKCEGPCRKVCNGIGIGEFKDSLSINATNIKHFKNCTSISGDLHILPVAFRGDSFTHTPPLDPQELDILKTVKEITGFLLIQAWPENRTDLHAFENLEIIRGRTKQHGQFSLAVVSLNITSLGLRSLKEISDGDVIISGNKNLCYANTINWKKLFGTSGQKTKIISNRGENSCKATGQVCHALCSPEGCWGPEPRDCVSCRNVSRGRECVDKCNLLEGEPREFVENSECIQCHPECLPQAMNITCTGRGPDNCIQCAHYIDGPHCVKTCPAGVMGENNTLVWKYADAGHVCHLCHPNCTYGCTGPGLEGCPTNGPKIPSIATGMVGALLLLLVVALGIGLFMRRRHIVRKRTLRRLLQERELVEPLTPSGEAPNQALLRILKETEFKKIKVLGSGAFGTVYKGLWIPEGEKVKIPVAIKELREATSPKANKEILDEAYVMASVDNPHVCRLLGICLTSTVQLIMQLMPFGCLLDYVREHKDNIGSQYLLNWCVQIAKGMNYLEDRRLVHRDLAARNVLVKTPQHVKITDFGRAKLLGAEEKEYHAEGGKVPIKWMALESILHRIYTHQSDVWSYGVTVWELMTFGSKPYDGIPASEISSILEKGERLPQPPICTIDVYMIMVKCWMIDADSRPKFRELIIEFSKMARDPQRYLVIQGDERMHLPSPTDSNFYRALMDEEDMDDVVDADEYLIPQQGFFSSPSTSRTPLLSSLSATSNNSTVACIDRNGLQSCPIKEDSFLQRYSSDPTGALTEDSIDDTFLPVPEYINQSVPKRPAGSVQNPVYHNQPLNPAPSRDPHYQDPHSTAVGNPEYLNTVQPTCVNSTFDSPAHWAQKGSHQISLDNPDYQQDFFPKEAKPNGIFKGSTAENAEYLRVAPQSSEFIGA
Experiment: Cellular EGFR phosphorylation assay (LANCE Ultra TR-FRET) in NCI-H1975 cells
Format: cell-based
Conditions: 4 hours at 37° C., read-out: H1975 pEGFR IC50
Reported Endpoint: IC50 (nM)

Solved cases (5 shown):
Compound: Cc1nn(CCO)c2c1/C=C/c1n[nH]c3cnc(cc13)-c1c(C)nn(C)c1O[C@@H](C)CN(C(C)C)C2 [Ex. 21]
IC50, nM: 2.32
--
Compound: CCOc1nn(C[C@H](C)O)c2c1/C=C/c1n[nH]c3cnc(cc13)-c1c(C)nn(C)c1O[C@@H](C)CN(C1CC1)C2 [Ex. 107]
IC50, nM: 7.07
--
Compound: Cc1nn(C)c2c1-c1cc3c(n[nH]c3cn1)/C=C/c1c(OCC#N)nn([C@@H](C)CO)c1CN(C)C[C@H](C)O2 [Ex. 53]
IC50, nM: 8.74
--
Compound: CCOc1nn(CCO)c2c1/C=C/c1n[nH]c3cnc(cc13)-c1c(C)nn(C)c1O[C@H](C)[C@H]1CCCN1C2 [Ex. 33]
IC50, nM: 2.38
--
Compound: CCOc1nn(CCO)c2c1/C=C/c1n[nH]c3c(C)nc(cc13)-c1c(C)nn(C)c1OCCN(C)C2 [Ex. 75]
IC50, nM: 7.41

a = CC(C)Oc1nn(CCO)c2c1/C=C/c1n[nH]c3cnc(cc13)-c1cnn(C)c1OC[C@H](C)N(C(C)C)C2 [Ex. 4]
b = CCN(C)c1nn([C@@H](C)CO)c2c1/C=C/c1n[nH]c3cnc(cc13)-c1c(C)nn(C)c1O[C@@H](C)CN(C)C2 [Ex. 105]
query: Quick one: lower IC50, a or b ? Which one? Tell me its label.
result: a
(a: 17.7 nM, b: 274 nM)
